Molecular target: PIM1 (Homo sapiens (Human), UniProt P11309)
Sequence (P11309 whole entry): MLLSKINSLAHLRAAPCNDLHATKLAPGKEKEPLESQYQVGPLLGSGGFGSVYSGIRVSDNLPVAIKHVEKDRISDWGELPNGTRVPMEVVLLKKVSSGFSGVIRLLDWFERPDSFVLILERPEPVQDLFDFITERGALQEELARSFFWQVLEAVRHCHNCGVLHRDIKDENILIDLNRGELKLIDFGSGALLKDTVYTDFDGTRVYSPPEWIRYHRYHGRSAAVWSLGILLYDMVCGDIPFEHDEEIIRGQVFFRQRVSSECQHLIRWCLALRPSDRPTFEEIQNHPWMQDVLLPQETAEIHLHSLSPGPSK
Test: biochemical
Format: biochemical
measurementName: Ki (µM)
Numbers only, in µM.

Respond only with Ki recorded for `Cc1cncc(-c2cc3c(cn2)cnn3-c2ccc(=O)n([C@@H]3CCCNC3)n2)n1`
0.0163

---

pKi, PIM3 (Homo sapiens (Human)): measured values
Give bare numbers, as −log10 of the molar value.

• N#CCn1cc(-c2cc3c(cn2)cnn3-c2cccc(N3CCCNCC3)n2)cn1 = 9.96

For every listed record, write down its pKi.
1. Cc1nc(-c2cc3c(cn2)cnn3-c2cccc(N3CCCNCC3)n2)cnc1N
2. CCn1cc(-c2cc3c(cn2)cnn3-c2cccc(N3CC[C@H](O)C3)n2)cn1
3. Cn1ncc(-c2cc3c(cn2)cnn3-c2ccccc2F)c1N1CCC(N)CC1
4. Cc1cncc(-c2cc3c(cn2)cnn3-c2cccc(N3CCNCC3)n2)n1
5. Cc1cncc(-c2cc3c(cn2)cnn3-c2cccc(N3CCC4(CNC4)C3)n2)n1

[10.85, 8.88, 7.32, 10.30, 9.70]

For every listed record, write down its pKi.
1. Cc1ccc(-n2ncc3cnc(-c4cnn(CC(F)(F)F)c4)cc32)nc1N1CCNC[C@H](O)C1 (single isomer, unassigned)
2. c1cc(N2CCCNCC2)nc(-n2ncc3cnc(-c4cncc(C5CC5)c4)cc32)c1
3. OCCNc1cncc(-c2cc3c(cn2)cnn3-c2cccc(N3CCNCC3)n2)n1
4. FC(F)(F)Cn1cc(-c2cc3c(cn2)cnn3-c2cncc(N3CCCNCC3)n2)cn1

1. 9.27
2. 10.03
3. 10.68
4. 8.87

For every listed record, write down its pKi.
1. Cc1cncc(-c2cc3c(cn2)cnn3-c2cccc(C3CCNCC3)n2)n1
2. Cc1cncc(-c2cc3c(cn2)cnn3-c2cccc(N3CC4(CCNC4)C3)n2)n1
3. CCn1cc(-c2cc3c(cn2)cnn3-c2cccc(N3CCC[C@H](N)C3)n2)cn1
4. COc1cncc(-c2cc3c(cn2)cnn3-c2cccc(N3CCNCC3)n2)n1
5. Cc1cncc(-c2cc3c(cn2)cnn3-c2cccc(N3CCC4(CCCN4)CC3)n2)n1
6. Cc1cncc(-c2cc3c(cn2)cnn3-c2ccc3c(n2)CC(CN)CO3)n1 (centres unmarked)
7. Cn1cc(-c2cc3c(cn2)cnn3-c2cn(C)c(=O)c(N3CCC[C@H](N)C3)n2)cn1

9.35
9.59
9.81
10.17
10.03
9.10
7.37

---

Biological target: PIM2 (Homo sapiens (Human))
Sequence (Q9P1W9 whole entry): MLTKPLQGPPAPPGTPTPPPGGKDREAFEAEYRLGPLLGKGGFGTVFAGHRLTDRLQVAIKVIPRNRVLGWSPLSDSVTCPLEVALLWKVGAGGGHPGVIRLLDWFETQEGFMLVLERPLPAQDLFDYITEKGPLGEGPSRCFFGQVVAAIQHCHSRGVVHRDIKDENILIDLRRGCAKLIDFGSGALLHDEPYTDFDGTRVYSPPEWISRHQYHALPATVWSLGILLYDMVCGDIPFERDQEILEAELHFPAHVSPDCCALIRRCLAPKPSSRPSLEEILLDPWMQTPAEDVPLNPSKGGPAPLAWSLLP
Experiment: Pim kinase binding activity, Caliper LC3000 microfluidic peptide phosphorylation assay, PIM2
Type: biochemical
Conditions: 10 μM ATP, 90 min, room temperature; read-out: PIM2 LC3K (KI)
Structures can show the parent of a compound that is named as a salt.
For each record, write down the corresponding Ki.
Give bare numbers, in nM.

• Cc1cncc(-c2cc3c(cn2)cnn3-c2ccc(C(F)(F)F)c(N3CCNCC(O)C3)n2)n1 (stereo not drawn) [Compound 219] = 12.5
• c1cc(N2CCCNCC2)nc(-n2ncc3cnc(-c4cncnc4)cc32)c1 [Compound 175] = 196

For every listed record, write down its Ki.
1. OC1CN(c2cccc(-n3ncc4cnc(-c5cnn(CC(F)(F)F)c5)cc43)n2)C1 [Compound 255]
2. Cc1cncc(-c2cc3c(cn2)cnn3-c2cccc(C3(F)CCCNC3)n2)n1 (stereo not drawn) [Compound 294]
3. c1cc(N2CCNCC2)nc(-n2ncc3cnc(-c4cncs4)cc32)c1 [Compound 109]
4. CCc1cncc(-c2cc3c(cn2)cnn3-c2cccc(N3CCC[C@H](N)C3)n2)n1 [Compound 156]
5. O=c1cncc(-c2cc3c(cn2)cnn3-c2cccc(N3CCNCC3)n2)[nH]1 [Compound 287]
6. CC(C)c1cncc(-c2cc3c(cn2)cnn3-c2cccc(N3CCC[C@@H](N)C3)n2)c1 [Compound 107]
7. Cc1cncc(-c2cc3c(cn2)cnn3-c2cccc(N3CCCNCC3)n2)n1 [Compound 138]
8. Clc1cncc(-c2cc3c(cn2)cnn3-c2cccc(N3CCNCC3)n2)n1 [Compound 275, dihydrochloride]

1. 9.62
2. 2.37
3. 4.03
4. 0.37
5. 17.5
6. 9.58
7. 0.44
8. 5.74

For every listed record, write down its Ki.
1. Cc1cncc(-c2cc3c(cn2)cnn3-c2cccc(N3CCNCCC3=O)n2)n1 [Compound 206]
2. Cc1cncc(-c2cc3c(cn2)cnn3-c2cccc(NC3CCNCC3)n2)n1 [Compound 190]
3. Cc1nc(-c2cc3c(cn2)cnn3-c2cccc(N3CCCNCC3)n2)cnc1N [Compound 208]
4. FC(F)c1cncc(-c2cc3c(cn2)cnn3-c2cccc(N3CCNCC3)n2)n1 [Compound 279, trifluoroacetate]
5. Cc1cncc(-c2cc3c(cn2)cnn3-c2cccc(N3CCCC(N)C3C)n2)n1 (single isomer, unassigned) [Compound 204]
6. CC(C)(C)c1cncc(-c2cc3c(cn2)cnn3-c2cccc(N3CCNCC3)n2)n1 [Compound 170]
7. c1cc(N2CCNCC2)nc(-n2ncc3cnc(-c4cnccn4)cc32)c1 [Compound 144]
8. c1cc(N2CCCNCC2)nc(-n2ncc3cnc(-c4cnn(CC5CC5)c4)cc32)c1 [Compound 161]

40.4
1.28
0.748
3.99
0.477
91.2
1.16
18.8

For every listed record, write down its Ki.
1. CCNc1cncc(-c2cc3c(cn2)cnn3-c2cccc(N3CCNCC3)n2)n1 [Compound 285]
2. OC1CNCCN(c2cccc(-n3ncc4cnc(-c5cncc(C6CC6)c5)cc43)n2)C1 (stereo not drawn) [Compound 115]
3. Cc1cncc(-c2cc3c(cn2)cnn3-c2cccc(N3CCC4(CCNC4)CC3)n2)n1 [Compound 200]
4. COc1ccc(-n2ncc3cnc(-c4cncc(C)n4)cc32)nc1N1CCC[C@H](N)C1 [Compound 186]
5. Cn1cc(-c2cc3c(cn2)cnn3-c2cccc(N3CCNC[C@H](O)C3)n2)cn1 [Compound 231]

[2.28, 14.9, 17, 0.134, 1.39]

For every listed record, write down its Ki.
1. Cc1cncc(-c2cc3c(cn2)cnn3-c2cccc(N3CCNC(C)CC3)n2)n1 (stereo not drawn) [Compound 184]
2. Cn1cc(-c2cc3c(cn2)cnn3-c2cccc(N3CC(CN)C3)n2)cn1 [Compound 256]
3. Cc1cncc(-c2cc3c(cn2)cnn3-c2cccc(N3CCNC[C@@H]3C)n2)n1 [Compound 196]
4. Cc1cncc(-c2cc3c(cn2)cnn3-c2cccc(C3CCNCC3)n2)n1 [Compound 166]
5. Cc1cncc(-c2cc3c(cn2)cnn3-c2cccc(N3C[C@@H](N)C[C@@H](F)C3)n2)n1 [Compound 198]
6. Cn1ncc(-c2cc3c(cn2)cnn3-c2ccccc2F)c1C1=CCNCC1 [Compound 314]
7. Cn1cc(-c2cc3c(cn2)cnn3-c2cn(C)c(=O)c(N3CCC[C@@H](N)C3)n2)cn1 [Compound 243]

1. 2.42
2. 83.2
3. 0.864
4. 4.62
5. 2.55
6. 1100
7. 528

Data credit: patent US9434725B2
